Details: in isopropanol, 313.15 K
QUANTITY_MEASURED: solubility (mole fraction)
# print the numeric value only

Incoming: For the compound `CN1C(C(=O)Nc2ccccn2)=C(O)c2sc(Cl)cc2S1(=O)=O` , report solubility (mole fraction).
Outgoing: 1.81e-05

----------
Settings: in ethylene glycol, 308.15 K
QUANTITY_MEASURED: solubility (mole fraction)
# print the numeric value only

Incoming: For the compound `CN1C(C(=O)Nc2ccccn2)=C(O)c2sc(Cl)cc2S1(=O)=O` , report solubility (mole fraction).
Outgoing: 0.000474

----------
Details: in ethanol, 308.15 K
QUANTITY_MEASURED: solubility (mole fraction)
# print the numeric value only

Incoming: For the compound `CN1C(C(=O)Nc2ccccn2)=C(O)c2sc(Cl)cc2S1(=O)=O` , report solubility (mole fraction).
Outgoing: 1.45e-05

----------
Details: in n-butanol, 323.15 K
QUANTITY_MEASURED: solubility (mole fraction)

Incoming: For the molecule `CN1C(C(=O)Nc2ccccn2)=C(O)c2sc(Cl)cc2S1(=O)=O` , report solubility (mole fraction).
Outgoing: 2.39e-05

----------
Conditions: in PEG-400, 323.15 K
QUANTITY_MEASURED: solubility (mole fraction)

Incoming: For the molecule `CN1C(C(=O)Nc2ccccn2)=C(O)c2sc(Cl)cc2S1(=O)=O` , report solubility (mole fraction).
Outgoing: 0.0169

----------
Details: in sec-butanol, 303.15 K
QUANTITY_MEASURED: solubility (mole fraction)
# print the numeric value only

Incoming: For the molecule `CN1C(C(=O)Nc2ccccn2)=C(O)c2sc(Cl)cc2S1(=O)=O` , report solubility (mole fraction).
Outgoing: 3.59e-05

----------
Conditions: in ethyl acetate, 303.15 K
QUANTITY_MEASURED: solubility (mole fraction)
# print the numeric value only

Incoming: For the compound `CN1C(C(=O)Nc2ccccn2)=C(O)c2sc(Cl)cc2S1(=O)=O` , report solubility (mole fraction).
Outgoing: 9.08e-05

----------
Details: in propylene glycol, 303.15 K
QUANTITY_MEASURED: solubility (mole fraction)
# print the numeric value only

Incoming: For the compound `CN1C(C(=O)Nc2ccccn2)=C(O)c2sc(Cl)cc2S1(=O)=O` , report solubility (mole fraction).
Outgoing: 3.6e-05

----------
Settings: in ethanol, 313.15 K
QUANTITY_MEASURED: solubility (mole fraction)
# print the numeric value only

Incoming: For the compound `CN1C(C(=O)Nc2ccccn2)=C(O)c2sc(Cl)cc2S1(=O)=O` , report solubility (mole fraction).
Outgoing: 1.98e-05

----------
Conditions: in ethylene glycol, 303.15 K
QUANTITY_MEASURED: solubility (mole fraction)

Incoming: For the molecule `CN1C(C(=O)Nc2ccccn2)=C(O)c2sc(Cl)cc2S1(=O)=O` , report solubility (mole fraction).
Outgoing: 0.000334

----------
Details: in n-butanol, 303.15 K
QUANTITY_MEASURED: solubility (mole fraction)
# print the numeric value only

Incoming: For the compound `CN1C(C(=O)Nc2ccccn2)=C(O)c2sc(Cl)cc2S1(=O)=O` , report solubility (mole fraction).
Outgoing: 1.55e-05

----------
Details: in water, 298.15 K
QUANTITY_MEASURED: solubility (mole fraction)
# print the numeric value only

Incoming: For the molecule `CN1C(C(=O)Nc2ccccn2)=C(O)c2sc(Cl)cc2S1(=O)=O` , report solubility (mole fraction).
Outgoing: 2.91e-06

Recorded values, source BigSolDB 2.1.
